Where do these numbers come from? They come from patent US8338426B2.

Experiment: Pharmacokinetic study in rats
Assay type: in vivo
Conditions: rat, whole blood, iv, read-out: VSS
Experimental: The pharmacokinetic, blood-brain barrier penetration and ex vivo receptor occupancy studies were performed as described in Bonaventure, P., D. Nepomuceno, C. […] All blood samples were deproteinized by 1:4 dilution of the sample with acetonitrile with vigorous mixing. […] Samples were analyzed by LC-MS/MS. […] Oral, subcutaneous and intravenous pharmacokinetic parameters of the compound of formula (A) were determined in rats and are listed in Table 2 below.

COMPOUND	Vd / L/kg
CCN(CC)C(=O)C(c1ccccc1)N1CCN(c2ccc(NC(=O)c3ccccc3-c3cccnc3)cc2F)CC1 (racemic) [Cmpd (A)]	0.73
